system-under-test: T1, SARS-CoV2 Spike ecto foldon Trimer expressed with a C-terminal myc-myc-hexahistidine (SARS-CoV-2, UniProt P0DTC2 14-1213)
T1 construct: extracellular domain
protocol-summary: SPR Biacore, mAb captured by anti-hFc, 37C
pKd: −log10 of the molar value.
pKd values by entry
measurement-type: pKd

binder="mAb14289 (antibody, V domains shown) VH: QVQLVQSGPEVKKPGASVKVSCKASGYTFTSYAISWVRQAPGQGLEWMGWISAYNGNTNYAQKLQGRVTMTTDTFTSTAYMELRSLRSDDTAVYYCAVPADHITFDYWGQGTLVTVSS VL: EIVLTQSPGTLSLSPGERATLSCRASQSVSSYLAWYQQKPGQAPRLLIHGASSRATGIPDRFSGSGSGTDFTLTISRLEPEDFAVYYCQQYGSSFLTFGGGTKVEIKR" measurement_type=pKd recorded_value=10.14
binder="mAb14315 (antibody, V domains shown) VH: QVQLVQSGAEVKKPGSSVKVSCKASGDTFSTYAINWVRQAPGQGLEWMGRFIHIFGTANYAQKFQGRVTITADESTSTAYMELRSLRSEDTAVYYCARDGVDYGDYRPDYWGQGTLVTVSS VL: EIVLTQSPGTLSLSPGERATLSCRASQSVSSNYLAWYQQKPGQAPRLLIYGASSRATGIPERFSGSGSGTDFTLTISRLEPEDFAVYYCQQYGSSLYTFGQGTKLEIKR" measurement_type=pKd recorded_value=10.36
binder="mAb14255 (antibody, V domains shown) VH: QVQLQESGPGLVKPSETLSLTCTVSGGSISGYYWSWIRQPPGKGLDWIGYIYYRGNTNYNPSLKSRVTISVDTSNNQFSLKLSSVTAADTAVYYCARYGEGYGDASGYHFDYWGQGTLVTVSS VL: QSALTQPASVSGSPGQSITISCTGTSSDVGSYNLVSWYQQHPGKAPKLMIYEDSKRPSGVANPFSGSKSGNTASLTISGLQAEDEADYYCSSYAGSSTWVFGGGTKLTVLG" measurement_type=pKd recorded_value=9.81
binder="mAb14256 (antibody, V domains shown) VH: QVQLQESGPGLVKPSETLSLTCTVSGGSISSHYWSWIRQPPGKGLEWIGYIYYSGSSNYNPSLKSRVTISVDTSKNQFSLKLNSVTAADTAVYYCARHYDILTGFDWFDPWGQGTLVTVSS VL: QSVLTQPPSVSGAPGQRVTISCTGSSSNIGTHYDVHWYQQLPGTAPKLLIYGNSNRPSGVPDRFSGSKSGTSASLAITGLQAEDEADYYCQSFDNSLTAPYVFGTGTKVTVLG" measurement_type=pKd recorded_value=9.52
binder="mAb14285 (antibody, V domains shown) VH: QVQLVQSGAEVKKPGASVKVSCKASGYTFTGYFIHWVRQAPGQGLEWMGWISPISGGTNYAQKFQGRVTVTRDTSITTAYMELSRLTSDDTAVYHCAREGGTWKGDFDYWGQGTLVTVSS VL: QSALTQPASVSGSPGQSITISCTGTSSDVESYNLVSWYQQHPGKAPKLMIYEGSKRPSGVSNRFSGSKSGNTASLTISGLQAEDEADYYCSSYAGSSTWVFGGGTKLTVLG" measurement_type=pKd recorded_value=10.44
binder="mAb15150 (antibody, V domains shown) VH: EVQLVETGGGLIQPGGSLRLSCAAPGFIVSSNYMSWVRQAPGKGLEWVSLLYPGGSTYYADSVKGRFTISRDNSKNTLYLQMNSLRADDTAVYYCARVLPIVEDHFDYWGQGTLVTVSS VL: DIQLTQSPSFLSASVGDRVTITCRASQGMSSYLAWYQKKPGKAPKLLIYGATILQSGVPSRFSGSGSGTEFTLTISSLQPEDFATYYCQQLNSDPLYMYTFGQGTKLEIKR" measurement_type=pKd recorded_value=10.69
binder="mAb14284 (antibody, V domains shown) VH: QITLKESGPTLVKPTQTLTLTCTFSGFSFSTSGVGVGWIRQPPGKTLEWLALIYWDDDKRYSPSLKSRLTITKDTSKNQVVLTMTNMDPVDTATYFCAHHGIPTIFGYWGQGALVTVSS VL: QSALTQPASVSGSPGQSITISCTGTSSDLGVFNYVSWYQQHPGKAPKLMIYEVTNRPSGVSNRFSGSKSGNTASLTISGLQAEDEADYYCSSYTTSSTVFGGGTKLTVLG" measurement_type=pKd recorded_value=10.60
binder="mAb13458 (antibody, V domains shown) VH: EVQLVESGGGLVQPGRSLRLSCAASGFTFDDYAMHWVRQAPGKGLEWVSGISWNSGSIGYADSVKGRFTISRDNAKNSLYLQMNSLRAEDTALYYCAKDIGITTPYWGQGTLVTVSS VL: AIQMTQSPSSLSASVGDRVTITCRASQDIRNDLGWYQQKPGKAPKLLIYSASSLQTGVPSRFSGSGSGTDFTLTISSLHPEDFATYYCLQDYWYTWTFGQGTKVEIKR" measurement_type=pKd recorded_value=10.30
binder="mAb14257 (antibody, V domains shown) VH: EVQLVESGGGLVQPGGSLRLSCAASGFTVSRSYMNWVRQAPGKGLEWVSVVFTGGTTKHTDSVKGRFTISRDNSMNTLYLQMNSLRPEDTAVYYCARVAIVETTGAFDIWGQGTMVTVSS VL: QSVLTQPPSVSGAPGQRVTISCTGTSSNIGADFDVHWYQQFPGTAPKLLIYGHTNRPSGIPDRFSGSKSGTSASLAITGLQAEDEADYYCQSYDSSLSGSVVFGGGTKLTVLG" measurement_type=pKd recorded_value=9.85
binder="mAb15165 (antibody, V domains shown) VH: EVQLVESGGGLVQPGGSLRLSCAASGFTVSSNYMSWVRQAPGKGLEWVSAIYSGDSTYYADSVKGRFTISKDNSKNTLYLQMNSLRGEDTAVYYCARLGGALQAYDGAFDYWGQGTLATVSS VL: QSALTQPASVSGSPGQSITISCTGTSSDFGSYNLVSWYQQHPGKAPKLMIYEGNKRPSGVSIRFSGSKSGNTASLTISGLQAEDEADYYCSSYAGSSTWVFGGGTKLTVLG" measurement_type=pKd recorded_value=10.27

meta.source: patent US20260069689A1
